In this section, each of the compounds is paired with its reported Bliss excess.
System: HSC-39 (Gastric Carcinoma);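 further: after 72 h of two-drug dosing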
Experimental Details: Bliss excess, mean over the matrix (fraction); higher = more synergy
Observed Property: Bliss excess

Compound	Subject Of Test	Observed Property	Observed Value
O=C(c1cc(Cc2n[nH]c(=O)c3ccccc23)ccc1F)N1CCN(C(=O)C2CC2)CC1 [Olaparib] + CC1(C)CCC(CN2CCN(c3ccc(C(=O)NS(=O)(=O)c4ccc(NCC5CCOCC5)c([N+](=O)[O-])c4)c(Oc4cnc5[nH]ccc5c4)c3)CC2)=C(c2ccc(Cl)cc2)C1 [Venetoclax] (first compound max 10 µM, 7x7, partner max 1 µM)	HSC-39 (Gastric Carcinoma)	Bliss excess	0.0033
C[C@@H]1COCCN1c1cc(C2([S@](C)(=N)=O)CC2)nc(-c2ccnc3[nH]ccc23)n1 [AZD6738] + C1CC(C1)(C(=O)[O-])C(=O)[O-].N.N.[Pt+2] [Carboplatin] (first compound max 10 µM, 7x7, partner max 10 µM)	HSC-39 (Gastric Carcinoma)	Bliss excess	-0.0265
